# Target Desc: APC (303–739) (Homo sapiens, UniProt P25054)
# Sequence (P25054 303-739): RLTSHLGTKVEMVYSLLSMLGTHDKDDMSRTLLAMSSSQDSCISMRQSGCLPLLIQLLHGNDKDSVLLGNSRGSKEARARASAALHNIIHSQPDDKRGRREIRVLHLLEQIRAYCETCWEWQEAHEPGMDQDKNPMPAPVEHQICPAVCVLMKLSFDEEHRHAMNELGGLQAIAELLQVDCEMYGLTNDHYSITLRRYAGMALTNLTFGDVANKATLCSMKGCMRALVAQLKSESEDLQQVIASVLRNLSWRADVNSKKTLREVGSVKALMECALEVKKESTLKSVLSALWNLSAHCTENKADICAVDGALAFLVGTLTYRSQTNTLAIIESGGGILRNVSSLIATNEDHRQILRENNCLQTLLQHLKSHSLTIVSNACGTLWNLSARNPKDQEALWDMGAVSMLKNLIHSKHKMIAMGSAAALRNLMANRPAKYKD
# Assay Summary: FP competitive assay using tracer 7
# Assay type: binding
# Assay Conditions: tracer 7; read-out: IC50 Repeat 2
Where a SMILES comes first, the peptide text is derived from it. [ ]: non-standard residue; d: D form. The star is where a group is joined. Phe(4-tBu) = CC(C)(C)c1ccc(C[C@H](N)C(=O)O)cc1; Ala(cPent) = N[C@@H](CC1CCCC1)C(=O)O; Benzoyl(4-OMe) = COc1ccc(C(=O)*)cc1; Ala(cPr) = N[C@@H](CC1CC1)C(=O)O; Cha = N[C@@H](CC1CCCCC1)C(=O)O; hLeu = CC(C)CC[C@H](N)C(=O)O
Measured Parameter: pIC50
Kindly note that pIC50 refers to -log10 of the concentration in mol/L and answer with the value alone.

Req: GET /values?readout=pIC50&item= COc1ccc(C(=O)N[C@@H](C)C(=O)NCC(=O)N[C@@H](CCC(=O)O)C(=O)N[C@@H](CO)C(=O)N[C@@H](CC2CCCC2)C(=O)N[C@@H](Cc2ccc(O)cc2)C(=O)N[C@@H](CCC(=O)O)C(N)=O)cc1 [MAI-519] ({Benzoyl(4-OMe)}-AGES[Ala(cPent)]YE-NH2)
Resp: 7.53

Req: Same again, this time with COc1ccc(C(=O)N[C@@H](C)C(=O)NCC(=O)N[C@@H](CCC(=O)O)C(=O)N[C@@H](CO)C(=O)N[C@@H](CC(C)C)C(=O)N[C@@H](Cc2ccc(O)cc2)C(=O)N[C@@H](Cc2ccc(C(C)(C)C)cc2)C(N)=O)cc1 [MAI-522] ({Benzoyl(4-OMe)}-AGESLY[Phe(4-tBu)]-NH2)
Resp: 6.84

Req: Would you kindly repeat that for COc1ccc(C(=O)N[C@@H](C)C(=O)NCC(=O)N[C@@H](CCC(=O)O)C(=O)N[C@@H](CO)C(=O)N[C@@H](CC2CC2)C(=O)N[C@@H](Cc2ccc(O)cc2)C(=O)N[C@@H](CCC(=O)O)C(N)=O)cc1 [MAI-518] ({Benzoyl(4-OMe)}-AGES[Ala(cPr)]YE-NH2) ?
Resp: 7.33

Req: How about COc1ccc(C(=O)N[C@@H](C)C(=O)NCC(=O)N[C@@H](CCC(=O)O)C(=O)N[C@@H](CO)C(=O)N[C@@H](CCC(C)C)C(=O)N[C@@H](Cc2ccc(O)cc2)C(=O)N[C@@H](CCC(=O)O)C(N)=O)cc1 [MAI-517] ({Benzoyl(4-OMe)}-AGES[hLeu]YE-NH2) ?
Resp: 7.55

Req: Also COc1ccc(C(=O)N[C@@H](C)C(=O)NCC(=O)N[C@@H](CCC(=O)O)C(=O)N[C@@H](CO)C(=O)N[C@@H](CC2CCCCC2)C(=O)N[C@@H](Cc2ccc(O)cc2)C(=O)N[C@@H](CCC(=O)O)C(N)=O)cc1 [MAI-520] ({Benzoyl(4-OMe)}-AGES[Cha]YE-NH2) ?
Resp: 7.26

---

# Target Desc: APC (303–739) (Homo sapiens)
# Assay Summary: FP competitive assay using tracer 7
# Assay type: binding
# Assay Conditions: tracer 7; read-out: IC50 Repeat 3
Where a SMILES comes first, the peptide text is derived from it. [ ]: non-standard residue; d: D form. The star is where a group is joined. Phe(4-tBu) = CC(C)(C)c1ccc(C[C@H](N)C(=O)O)cc1; Ala(cPent) = N[C@@H](CC1CCCC1)C(=O)O; Benzoyl(4-OMe) = COc1ccc(C(=O)*)cc1; Ala(cPr) = N[C@@H](CC1CC1)C(=O)O; Cha = N[C@@H](CC1CCCCC1)C(=O)O; hLeu = CC(C)CC[C@H](N)C(=O)O
Measured Parameter: pIC50
pIC50 here: minus log base 10 of the concentration, concentration in moles per litre.

Req: Give the measured pIC50 of COc1ccc(C(=O)N[C@@H](C)C(=O)NCC(=O)N[C@@H](CCC(=O)O)C(=O)N[C@@H](CO)C(=O)N[C@@H](CC2CCCC2)C(=O)N[C@@H](Cc2ccc(O)cc2)C(=O)N[C@@H](CCC(=O)O)C(N)=O)cc1 [MAI-519] ({Benzoyl(4-OMe)}-AGES[Ala(cPent)]YE-NH2) .
Resp: 7.64

Req: Field entry: COc1ccc(C(=O)N[C@@H](C)C(=O)NCC(=O)N[C@@H](CCC(=O)O)C(=O)N[C@@H](CO)C(=O)N[C@@H](CC2CCCCC2)C(=O)N[C@@H](Cc2ccc(O)cc2)C(=O)N[C@@H](CCC(=O)O)C(N)=O)cc1 [MAI-520] ({Benzoyl(4-OMe)}-AGES[Cha]YE-NH2)
Resp: 7.36

Req: Proceed to COc1ccc(C(=O)N[C@@H](C)C(=O)NCC(=O)N[C@@H](CCC(=O)O)C(=O)N[C@@H](CO)C(=O)N[C@@H](CC(C)C)C(=O)N[C@@H](Cc2ccc(O)cc2)C(=O)N[C@@H](Cc2ccc(C(C)(C)C)cc2)C(N)=O)cc1 [MAI-522] ({Benzoyl(4-OMe)}-AGESLY[Phe(4-tBu)]-NH2)
Resp: 6.88

Req: Next entry: COc1ccc(C(=O)N[C@@H](C)C(=O)NCC(=O)N[C@@H](CCC(=O)O)C(=O)N[C@@H](CO)C(=O)N[C@@H](CC2CC2)C(=O)N[C@@H](Cc2ccc(O)cc2)C(=O)N[C@@H](CCC(=O)O)C(N)=O)cc1 [MAI-518] ({Benzoyl(4-OMe)}-AGES[Ala(cPr)]YE-NH2)
Resp: 7.37

Req: Field entry: COc1ccc(C(=O)N[C@@H](C)C(=O)NCC(=O)N[C@@H](CCC(=O)O)C(=O)N[C@@H](CO)C(=O)N[C@@H](CCC(C)C)C(=O)N[C@@H](Cc2ccc(O)cc2)C(=O)N[C@@H](CCC(=O)O)C(N)=O)cc1 [MAI-517] ({Benzoyl(4-OMe)}-AGES[hLeu]YE-NH2)
Resp: 7.69

---

# Target Desc: APC (303–739) (Homo sapiens, UniProt P25054)
# Assay Summary: FP competitive assay using tracer 7
# Format: binding
# Assay Conditions: Repeat 2; Table 3 source data; read-out: IC50(μM) Repeat 2
Where a SMILES comes first, the peptide text is derived from it. The star is where a group is joined. Cyclohexanecarbonyl = O=C(C1CCCCC1)*; Pyrrole(1-Me-2-CO) = Cn1cccc1C(=O)*; 2Furoyl = O=C(c1ccco1)*; Acryloyl = C=CC(=O)*
Measured Parameter: IC50 (µM)
Numbers only; they are read as µM.

Req: Please look up its IC50: CC(C)C[C@H](NC(=O)[C@H](CO)NC(=O)[C@H](CCC(=O)O)NC(=O)CNC(=O)[C@H](C)NC(=O)C1CCCCC1)C(=O)N[C@@H](Cc1ccc(O)cc1)C(=O)N[C@@H](CCC(=O)O)C(N)=O [MAI-504] (Cyclohexanecarbonyl-AGESLYE-NH2)
Resp: 1.66

Req: Now this one: C=CC(=O)N[C@@H](C)C(=O)NCC(=O)N[C@@H](CCC(=O)O)C(=O)N[C@@H](CO)C(=O)N[C@@H](CC(C)C)C(=O)N[C@@H](Cc1ccc(O)cc1)C(=O)N[C@@H](CCC(=O)O)C(N)=O [MAI-501] (Acryloyl-AGESLYE-NH2)
Resp: 19.1

Req: What do you have for CC(C)C[C@H](NC(=O)[C@H](CO)NC(=O)[C@H](CCC(=O)O)NC(=O)CNC(=O)[C@H](C)NC(=O)c1cccn1C)C(=O)N[C@@H](Cc1ccc(O)cc1)C(=O)N[C@@H](CCC(=O)O)C(N)=O [MAI-510] ({Pyrrole(1-Me-2-CO)}-AGESLYE-NH2) ?
Resp: 0.34

Req: Follow-up item: CC(C)C[C@H](NC(=O)[C@H](CO)NC(=O)[C@H](CCC(=O)O)NC(=O)CNC(=O)[C@H](C)NC(=O)c1ccco1)C(=O)N[C@@H](Cc1ccc(O)cc1)C(=O)N[C@@H](CCC(=O)O)C(N)=O [MAI-506] (2Furoyl-AGESLYE-NH2)
Resp: 0.419

---

Please go through the items and note down their IC50.
# Target Desc: APC (303–739) (Homo sapiens, UniProt P25054)
# Assay Summary: FP competitive assay using tracer 7
# Assay type: binding
# Assay Conditions: tracer 7; mean of three repeats; read-out: IC50 mean
# Experimental: FITC-labeled tracer peptides were obtained from Changzhou Kanglong Biotech Ltd. (Changzhou, Jiangsu, China). […]. The FP signal changes upon tracer binding were measured after 1.5 h of incubation using a Synergy neo microplate reader (BioTek Instruments, Inc.) and plotted against the protein concentration. […] The FP signals were measured after 1.5 h of incubation at room temperature using a Synergy neo microplate reader. […]
Where a SMILES comes first, the peptide text is derived from it. [ ]: non-standard residue; d: D form. The star is where a group is joined. Ala(cPent) = N[C@@H](CC1CCCC1)C(=O)O; Benzoyl(4-OMe) = COc1ccc(C(=O)*)cc1; Ala(cPr) = N[C@@H](CC1CC1)C(=O)O; Cha = N[C@@H](CC1CCCCC1)C(=O)O; hLeu = CC(C)CC[C@H](N)C(=O)O
Use nM as the unit, but write only the number.

Req: Give its IC50 value. Item: COc1ccc(C(=O)N[C@@H](C)C(=O)NCC(=O)N[C@@H](CCC(=O)O)C(=O)N[C@@H](CO)C(=O)N[C@@H](CC2CCCCC2)C(=O)N[C@@H](Cc2ccc(O)cc2)C(=O)N[C@@H](CCC(=O)O)C(N)=O)cc1 [MAI-520] ({Benzoyl(4-OMe)}-AGES[Cha]YE-NH2)
Resp: 50.9

Req: Please answer likewise for COc1ccc(C(=O)N[C@@H](C)C(=O)NCC(=O)N[C@@H](CCC(=O)O)C(=O)N[C@@H](CO)C(=O)N[C@@H](CC2CC2)C(=O)N[C@@H](Cc2ccc(O)cc2)C(=O)N[C@@H](CCC(=O)O)C(N)=O)cc1 [MAI-518] ({Benzoyl(4-OMe)}-AGES[Ala(cPr)]YE-NH2)
Resp: 44.9

Req: Check COc1ccc(C(=O)N[C@@H](C)C(=O)NCC(=O)N[C@@H](CCC(=O)O)C(=O)N[C@@H](CO)C(=O)N[C@@H](CC2CCCC2)C(=O)N[C@@H](Cc2ccc(O)cc2)C(=O)N[C@@H](CCC(=O)O)C(N)=O)cc1 [MAI-519] ({Benzoyl(4-OMe)}-AGES[Ala(cPent)]YE-NH2) too.
Resp: 25.1

Req: For COc1ccc(C(=O)N[C@@H](C)C(=O)NCC(=O)N[C@@H](CCC(=O)O)C(=O)N[C@@H](CO)C(=O)N[C@@H](CCC(C)C)C(=O)N[C@@H](Cc2ccc(O)cc2)C(=O)N[C@@H](CCC(=O)O)C(N)=O)cc1 [MAI-517] ({Benzoyl(4-OMe)}-AGES[hLeu]YE-NH2) then?
Resp: 24.7
